test system: HepG2; experiment: Cytotoxicity against human HepG2 cells
Measured quantity: pIC50
Reminder that pIC50 means the negative base-10 logarithm of the concentration expressed in mol/L.

Fill in reported pIC50 for this entry: C#Cc1nc(C(=O)N(c2ccc(-c3cnco3)cc2)[C@@H](C(=O)NC(C)(C)C)c2csc3ccccc23)cs1
7.25

* * *

test system: HT-1080; experiment: Cytotoxicity against human HT-1080 cells in presence of Z-VAD-FMK
Measured quantity: IC50 (nM)
Dear colleague, please return just the value in nM, with no unit written.

# return recorded IC50 for input C#Cc1nc(C(=O)N(c2ccc(-c3cnco3)cc2)[C@@H](C(=O)NC(C)(C)C)c2csc3ccccc23)cs1
0.2

* * *

experiment: Half life in male Sprague-Dawley rat at 2 mg/kg, iv measured upto 36 hrs by LC-MS/MS analysis; assay type: ADME, organism-based; conditions: in vivo
Measured quantity: half-life (h)
Just the number please, in h, no unit attached.

Using known records, supply half-life for C#Cc1nc(C(=O)N(c2ccc(-c3cnco3)cc2)[C@@H](C(=O)NC(C)(C)C)c2csc3ccccc23)cs1
1.05

* * *

assay: Cmax in male Sprague-Dawley rat at 20 mg/kg, po measured upto 36 hrs by LC-MS/MS analysis; assay type: ADME, organism-based; conditions: in vivo
Measured quantity: Cmax (ng/mL)
Unit ng/mL implied. Number only.

Report measured Cmax; entry is C#Cc1nc(C(=O)N(c2ccc(-c3cnco3)cc2)[C@@H](C(=O)NC(C)(C)C)c2csc3ccccc23)cs1
20.8

* * *

experiment: Oral bioavailability in male Sprague-Dawley rat at 20 mg/kg measured upto 36 hrs by LC-MS/MS analysis; type: ADME, organism-based; conditions: in vivo
Measured quantity: bioavailability (%)
API: value field is a number in %; no unit string.

Using known records, supply bioavailability for C#Cc1nc(C(=O)N(c2ccc(-c3cnco3)cc2)[C@@H](C(=O)NC(C)(C)C)c2csc3ccccc23)cs1
6.67

* * *

// reported Ratio IC50 per item
assay: Selectivity index, ratio of IC50 for cytotoxicity against human HT-1080 cells assessed as cell viability incubated for 24 hrs by CCK-8 assay to IC50 for induction of ferroptosis in human HT-1080 cells assessed as reduction in cell viability incubated for 24 hrs […] by CCK-8 assay; type: functional
The response must contain the number and no unit.

# Molecule, Ratio IC50
data = [
    ("C#Cc1nc(C(=O)N(c2ccc(-c3cnco3)cc2)C(C(=O)NC(C)(C)C)c2cc[nH]n2)cs1 (stereo not given)", 19),
    ("C#Cc1nc(C(=O)N(c2ccc(-c3cnco3)cc2)C(C(=O)NC(C)(C)C)c2cccc3ccccc23)cs1 (stereo not given)", 393),
    ("C#Cc1nc(C(=O)N(c2ccc(-c3cnco3)cc2)C(C(=O)NC(C)(C)C)c2cccs2)cs1 (stereo not given)", 19.9),
    ("C#Cc1nc(C(=O)N(c2ccc(C(F)(F)F)cc2)C(C(=O)NC(C)(C)C)c2csc3ccccc23)cs1 (stereo not given)", 311),
    ("C#Cc1nc(C(=O)N(c2ccc(-n3ccnc3)cc2)C(C(=O)NC(C)(C)C)c2csc3ccccc23)cs1 (stereo not given)", 14),
    ("C#Cc1nc(C(=O)N(c2ccc(-c3cnco3)cc2)C(C(=O)NC(C)(C)C)c2ccc[nH]2)cs1 (stereo not given)", 61.7),
    ("C#Cc1nc(C(=O)N(c2ccc(-c3cnco3)cc2)C(C(=O)NC(C)(C)C)c2c[nH]c3ccccc23)cs1 (stereo not given)", 86),
    ("C#Cc1nc(C(=O)N(c2ccc(-c3cnco3)cc2)C(C(=O)NC(C)(C)C)c2cncs2)cs1 (stereo not given)", 17),
    ("C#Cc1nc(C(=O)N(c2ccc(-c3cnco3)cc2)C(C(=O)NCc2ccccc2)c2csc3ccccc23)cs1 (stereo not given)", 191),
]

Note: attention shifts to another entry.
Output measured Ratio IC50 for this item: C#Cc1nc(C(=O)N(c2ccc(-c3cnco3)cc2)C(C(=O)NC2CCCCC2)c2csc3ccccc23)cs1 (stereo not given)
228
